# Tested on: LOX IMVI melanoma
# experiment.notes: NCI tumour cell line growth inhibition, 48 h
// reported TGI per item

O=C(O)C1CC(C2CCCCN2)CN2CCCCC12 (stereo not given); > 100 µM
CN1C(c2ccccc2)CC(C)(O)CC1c1ccccc1 (stereo not given); > 100 µM
NS(=O)(=O)c1ccc(N=Nc2c(O)[nH]c3ccc(C(=O)NCCc4cnc[nH]4)cc23)cc1; > 25 µM
CC(=O)NNc1nc(C)c(C(/C=C/c2ccc(Cl)cc2)=N\N=C(N)N)s1; > 100 µM
COc1ccc(-c2[nH]c(-c3ccc(OC)cc3)c(-c3ccccn3)c2-c2ccccn2)cc1; 65.5 µM

Return reported TGI; argument: CCC(C)C(=O)O[C@H]1C(=O)O[C@@H]2C[C@H]3C(C)=CC(=O)[C@@H](O)[C@]3(C)[C@H]3[C@@H](O)[C@H](O)[C@@]4(C)OC[C@]32[C@@H]14 (stereo not given in full)
< 0.0246 µM

Now the compound CCCCCCCCCC(=O)NCCc1c[nH]c2ccc(OC)cc12
27.6 µM

Now the compound Cc1cc(O[C@@H]2O[C@@H](C)[C@H](O)[C@@H](O)[C@H]2O)c2c3c(c(O[C@@H]4O[C@@H](C)[C@H](O)[C@@H](O)[C@H]4O)cc2c1)C(=O)c1c(O)cccc1C3=O
> 30 µM

Now the compound COc1ccc(/C=C2\C[C@H]3[C@@H]4CC=C5C[C@@H](OC(C)=O)CC[C@]5(C)[C@H]4CC[C@]3(C)C2=O)cc1OC
> 100 µM

Now the compound CC(=O)Nc1c2sscc-2n(C)c1=O
3.39 µM

Now the compound CCOC(=O)NC(Nc1ccc(S(=O)(=O)Nc2ccc(OC)nn2)cc1)(C(F)(F)F)C(F)(F)F
82 µM

Now the compound Cc1ccc(C(=O)O)c(/C=C2\Cc3cc(C)cc(C)c3C2=O)c1
> 100 µM

Now the compound Fc1cc(C2=Nn3c(CNc4ccc(Cl)cc4)nnc3S/C2=C\c2ccc(-c3ccc(Cl)cc3)o2)c(Cl)cc1Cl
> 100 µM
